target under test: HuCD100 (cell surface) (human, UniProt Q92854)
Sequence (Q92854 22-734): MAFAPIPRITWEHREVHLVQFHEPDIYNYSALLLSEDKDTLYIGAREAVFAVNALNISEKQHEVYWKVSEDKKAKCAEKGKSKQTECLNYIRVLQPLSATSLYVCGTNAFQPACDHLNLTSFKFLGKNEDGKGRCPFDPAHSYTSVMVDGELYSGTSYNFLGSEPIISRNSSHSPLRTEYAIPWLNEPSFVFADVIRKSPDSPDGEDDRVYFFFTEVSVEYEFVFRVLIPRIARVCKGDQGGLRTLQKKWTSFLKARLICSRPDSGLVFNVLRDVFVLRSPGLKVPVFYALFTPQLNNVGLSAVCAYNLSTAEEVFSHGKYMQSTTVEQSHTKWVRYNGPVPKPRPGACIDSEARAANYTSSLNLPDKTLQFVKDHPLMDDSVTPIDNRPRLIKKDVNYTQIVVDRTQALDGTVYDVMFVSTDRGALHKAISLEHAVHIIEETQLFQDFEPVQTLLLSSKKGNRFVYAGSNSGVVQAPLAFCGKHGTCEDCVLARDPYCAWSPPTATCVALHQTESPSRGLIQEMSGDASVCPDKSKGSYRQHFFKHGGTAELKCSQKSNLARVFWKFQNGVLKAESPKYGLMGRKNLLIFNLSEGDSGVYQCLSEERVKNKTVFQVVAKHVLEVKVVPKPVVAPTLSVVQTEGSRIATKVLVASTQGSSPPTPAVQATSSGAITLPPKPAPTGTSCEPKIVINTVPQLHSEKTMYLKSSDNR
protocol description: FACS, Jurkat
EC50 by entry:

Recorded results for 3 binders are shown here.
binder	quantity name	result
A15 (antibody, V domains shown) VH: EVQLLESGGGLIQPGGSLRLSCAASGFTVSSNYMSWVRQAPGKGLEWVSVIYSGGSTYYADSVKGRFTISRDNSKNTLYLQMNSLRAEDTAVYYCAREVEGGMDVWGQGTTVTVSS VL: SYVLTQPPSVSVSPGQTASIICSGDKLGDKYVYWYQQKSGQSPVLVIYQDRKRPSGIPERFSGSNSGNTASLAISGLQSEDEADYYCAAWDDSLNGWVFGGGTKLTVL	EC50	0.00851 µg/mL
H74 (antibody, V domains shown) VH: QVQLQQWGAGLLKPSETLSLTCAVYGGSFSGYYWSWIRQPPGKGLEWIGEINHSGSTNYNPSLKSRVTISVDTSKNQFSLKLSSVTAADTAVYYCAGTRWLQFPLNYWGQGTLVTVSS VL: SYVLTQPPSVSVSPGQTASITCSGDKLGDKYAYWYQQKPGQSPVLVLYQDAKRPSGIPERFSGSNSGNTATLTISGTQAMDEADYYCQAWDSSTAGYVFGTGTKVTVL	EC50	0.0138 µg/mL
C-B71 (antibody, V domains shown) VH: QVQLQESGPGLVKPSQTLSLTCTVSGGSISSGGYYWSWIRQHPGKGLEWIGYIYYSGSTYYNPSLKSRVTISVDTSKNQFSLKLSSVTAADTAVYYCAREGVAAAGIDYWGQGTPVTVSS VL: NIQLTQSPSSVSASVGDRVTITCRASQGISSWLAWYQQKPGKAPKLLISTASSVQSGVPTRFSASGSGTDFTLTISSLQPEDFATYYCQQGYRTPWTFGQGTKVEIK	EC50	0.108 µg/mL

Turning now to a further record.
Fill in the blank: the reported EC50 of B13 (antibody, V domains shown) VH: QVQLQQWGAGLLKPSETLSLTCAISSGSFSGYYWTWIRQPPGKGLEWIGETNHNGFTTYNTSLKSRITISIDASKNQFYLNLSSVTAADTATYFCARGPAYYADALDGFDIWGQGTMVTVSS VL: QSVLTQPPSVSVSPGQTASITCSGDKLGDKYVSWYQQKPGQSPVLVIYQDNKRPSGIPERFSGSNSGNTATLTISGTQAMDEADYYCQAWDSSTKAYVFGAGTKVTVL is ____.
0.0185 µg/mL

The reported measurements were obtained from patent US20260347464.
